experiment: Renal clearance in Sprague-Dawley rat as % compound recovered; type: ADME, organism-based, Kidney; settings: urine, read-out: Recovered in urine
experimental-readout: dose excreted

In: Please supply the value of reported dose excreted for the item CCCOCCn1c(=O)c(N2CCN(CCO)CC2)nc2cnc(-c3ccc(OC)nc3)cc21 [PF-03049423]
Out: < 2%

---

target: Dual specificity calcium/calmodulin-dependent 3',5'-cyclic nucleotide phosphodiesterase 1C (Homo sapiens); assay: Inhibition of PDE1C
Sequence (Q14123 whole entry): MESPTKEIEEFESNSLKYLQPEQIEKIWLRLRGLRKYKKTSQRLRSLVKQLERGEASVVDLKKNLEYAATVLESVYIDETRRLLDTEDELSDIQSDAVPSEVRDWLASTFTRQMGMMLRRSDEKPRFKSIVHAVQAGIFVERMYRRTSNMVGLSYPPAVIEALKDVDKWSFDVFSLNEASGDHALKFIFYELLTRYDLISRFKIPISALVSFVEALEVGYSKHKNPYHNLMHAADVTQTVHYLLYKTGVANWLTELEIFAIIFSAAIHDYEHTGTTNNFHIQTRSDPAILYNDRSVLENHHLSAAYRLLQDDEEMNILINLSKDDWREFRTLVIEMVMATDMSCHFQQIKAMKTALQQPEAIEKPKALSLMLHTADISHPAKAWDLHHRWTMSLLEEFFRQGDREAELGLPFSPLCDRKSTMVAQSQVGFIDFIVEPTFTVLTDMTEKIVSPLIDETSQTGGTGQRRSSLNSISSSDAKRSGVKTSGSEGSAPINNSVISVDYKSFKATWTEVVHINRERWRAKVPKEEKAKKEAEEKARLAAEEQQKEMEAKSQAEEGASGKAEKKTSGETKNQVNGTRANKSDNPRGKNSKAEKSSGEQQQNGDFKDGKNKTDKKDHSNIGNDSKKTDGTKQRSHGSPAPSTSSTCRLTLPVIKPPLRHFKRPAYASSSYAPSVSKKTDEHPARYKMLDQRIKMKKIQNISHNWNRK
pIC50: −log10 of the molar value.
experimental-readout: pIC50

In: Please supply the value of reported pIC50 for the item CCCOCCn1c(=O)c(N2CCN(CCO)CC2)nc2cnc(-c3ccc(OC)nc3)cc21 [PF-03049423]
Out: < 5.70
